Assay: Dissolution comparison of Nα-Nsc-amino acids and Nα-Fmoc-amino acids
Assay type: physicochemical
Set-up: key: ◯: dissolution; Δ: partial dissolution; X: no dissolution
Conditions: Nsc-amino acid, 100 mg in 1 ml dichloromethane, heated at 40° C. for 5 minutes, then room temperature 5 minutes
RECORDED ENDPOINT: Dissolved state, Nsc, column B

> print(dat)
                                   compound               recorded.endpoint  result.value
1  CC(C)C(NC(=O)OCCS(=O)(=O)c1ccc([N+](=O)[O-])cc1)C(=O)O (stereo not shown)  Dissolved state, Nsc, column B             ◯
2  CC(C)(C)OCC(NC(=O)OCCS(=O)(=O)c1ccc([N+](=O)[O-])cc1)C(=O)O (stereo not shown)  Dissolved state, Nsc, column B             ◯
3  CC(C)(C)OC(=O)NCCCCC(NC(=O)OCCS(=O)(=O)c1ccc([N+](=O)[O-])cc1)C(=O)O (stereo not shown)  Dissolved state, Nsc, column B             ◯
4  CSCC[C@H](NC(=O)OCCS(=O)(=O)c1ccc([N+](=O)[O-])cc1)C(=O)O  Dissolved state, Nsc, column B             ◯
